- Target of assay: Neurotensin receptor type 1 (Homo sapiens, UniProt P30989)
- Sequence (P30989 whole entry): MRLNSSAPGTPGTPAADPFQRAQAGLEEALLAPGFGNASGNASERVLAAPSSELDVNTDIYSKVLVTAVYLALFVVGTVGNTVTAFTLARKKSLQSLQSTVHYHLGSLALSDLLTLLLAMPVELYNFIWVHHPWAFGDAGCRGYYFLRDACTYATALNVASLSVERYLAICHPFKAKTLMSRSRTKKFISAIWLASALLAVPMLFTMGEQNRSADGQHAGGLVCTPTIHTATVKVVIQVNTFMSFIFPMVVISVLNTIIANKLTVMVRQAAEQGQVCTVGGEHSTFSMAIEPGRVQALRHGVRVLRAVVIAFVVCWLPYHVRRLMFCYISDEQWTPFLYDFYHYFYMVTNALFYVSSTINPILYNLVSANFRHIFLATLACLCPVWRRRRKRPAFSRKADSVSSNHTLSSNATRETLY
- Experimental details: Binding affinity towards neurotensin receptor in membranes prepared from HT-29 cell line, relative to [111In]-labeled neurotensin peptide
Where a SMILES comes first, the peptide text is derived from it. [ ]: non-standard residue; d: D form. The star is where a group is joined. Abu(1-amidino-4-piperidyl) = N=C(N)N1CCC(CC[C@H](N)C(=O)O)CC1; DTPA = O=C(O)CN(CCN(CC(=O)O)CC(=O)O)CCN(CC(=O)O)CC(=O)*; Tle = CC(C)(C)[C@H](N)C(=O)O
Assay endpoint: pIC50
Field pIC50 (float): negative decimal logarithm of the concentration in molar.

CC(C)C[C@H](NC(=O)[C@@H](NC(=O)[C@H](Cc1ccc(O)cc1)NC(=O)[C@@H]1CCCN1C(=O)[C@H](CCCN=C(N)N)NC(=O)[C@@H](NC(=O)[C@@H]1CCCN1C(=O)[C@H](CCCCN)NC(=O)[C@H](CC(N)=O)NC(=O)[C@H](CCC(=O)O)NC(=O)[C@@H](Cc1ccc(O)cc1)NC(=O)CN(CCN(CCN(CC(=O)O)CC(=O)O)CC(=O)O)CC(=O)O)C1CCN(C(=N)N)CC1)C(C)(C)C)C(=O)O :: 8.82

Quick note, pIC50 for CC(C)C[C@H](NC(=O)[C@@H](NC(=O)[C@H](Cc1ccc(O)cc1)NC(=O)[C@@H]1CCCN1C(=O)[C@H](CCCNC(=N)N)NC(=O)[C@H](CCC1CCN(C(=N)N)CC1)NC(=O)[C@@H]1CCCN1C(=O)[C@@H](CCCCN)NC(=O)CN(CCN(CCN(CC(=O)O)CC(=O)O)CC(=O)O)CC(=O)O)C(C)(C)C)C(=O)O ({DTPA}-[dK]P[Abu(1-amidino-4-piperidyl)]RPY[Tle]L-OH) landed at 8.20

###

- Target of assay: Neurotensin receptor type 1 (Homo sapiens, UniProt P30989)
- Experimental details: Binding affinity towards neurotensin receptor in membranes prepared from HT-29 cell line, relative to [111In]-labeled neurotensin peptide
Where a SMILES comes first, the peptide text is derived from it. [ ]: non-standard residue; d: D form. The star is where a group is joined. Gly(1-amidinopiperidin-4-yl) = N=C(N)N1CCC([C@H](N)C(=O)O)CC1; Ala(1-amidino-4-piperidyl) = N=C(N)N1CCC(C[C@H](N)C(=O)O)CC1; DTPA = O=C(O)CN(CCN(CC(=O)O)CC(=O)O)CCN(CC(=O)O)CC(=O)*; Phe(4-guanidino) = N=C(N)Nc1ccc(C[C@H](N)C(=O)O)cc1; Gly(piperidin-4-yl) = N[C@H](C(=O)O)C1CCNCC1; Tle = CC(C)(C)[C@H](N)C(=O)O
Assay endpoint: log10(IC50) (log10 of the value in nM)
Please note: log10 values; quantity IC50; unit nM.

Observe how each entry below is paired with its result.
CC(C)(C)[C@H](NC(=O)[C@H](Cc1ccc(O)cc1)NC(=O)[C@@H]1CCCN1C(=O)[C@H](CCCN=C(N)N)NC(=O)[C@@H](NC(=O)[C@@H]1CCCN1C(=O)[C@@H](CCCCN)NC(=O)CN(CCN(CCN(CC(=O)O)CC(=O)O)CC(=O)O)CC(=O)O)C1CCN(C(=N)N)CC1)C(=O)N[C@@H](CC1CCCCC1)C(=O)O :: 1.07
CC(C)(C)[C@H](NC(=O)[C@H](Cc1ccc(O)cc1)NC(=O)[C@@H]1CCCN1C(=O)[C@H](CCCN=C(N)N)NC(=O)[C@@H](NC(=O)[C@@H]1CCCN1C(=O)[C@H](CCCCN)NC(=O)[C@H](CC(N)=O)NC(=O)[C@H](CCC(=O)O)NC(=O)[C@@H](Cc1ccc(O)cc1)NC(=O)CN(CCN(CCN(CC(=O)O)CC(=O)O)CC(=O)O)CC(=O)O)C1CCN(C(=N)N)CC1)C(=O)N[C@@H](CC1CCCCC1)C(=O)O :: -0.22
CC(C)(C)C[C@H](NC(=O)[C@@H](NC(=O)[C@H](Cc1ccc(O)cc1)NC(=O)[C@@H]1CCCN1C(=O)[C@H](CCCN=C(N)N)NC(=O)[C@@H](NC(=O)[C@@H]1CCCN1C(=O)[C@@H](CCCCN)NC(=O)CN(CCN(CCN(CC(=O)O)CC(=O)O)CC(=O)O)CC(=O)O)C1CCN(C(=N)N)CC1)C(C)(C)C)C(=O)O :: 1.34
CC(C)C[C@H](NC(=O)[C@@H](NC(=O)[C@H](Cc1ccc(O)cc1)NC(=O)[C@@H]1CCCN1C(=O)[C@H](CCCNC(=N)N)NC(=O)[C@H](CC1CCN(C(=N)N)CC1)NC(=O)[C@@H]1CCCN1C(=O)[C@@H](CCCCN)NC(=O)CN(CCN(CCN(CC(=O)O)CC(=O)O)CC(=O)O)CC(=O)O)C(C)(C)C)C(=O)O ({DTPA}-[dK]P[Ala(1-amidino-4-piperidyl)]RPY[Tle]L-OH) :: 0.40
CC(C)C[C@H](NC(=O)[C@@H](NC(=O)[C@H](Cc1ccc(O)cc1)NC(=O)[C@@H]1CCN1C(=O)[C@H](CCCN=C(N)N)NC(=O)[C@@H](NC(=O)[C@H](CCCN=C(N)N)NC(=O)[C@@H]1CCCN1C(=O)[C@@H](CCCCN)NC(=O)CN(CCN(CCN(CC(=O)O)CC(=O)O)CC(=O)O)CC(=O)O)C1CCN(C(=N)N)CC1)C(C)(C)C)C(=O)O :: 2.05
CC(C)(C)C[C@H](NC(=O)[C@@H](NC(=O)[C@H](Cc1ccc(O)cc1)NC(=O)[C@@H]1CCCN1C(=O)[C@H](CCCNC(=N)N)NC(=O)[C@@H](NC(=O)[C@@H]1CCCN1C(=O)[C@H](CCCCN)NC(=O)[C@H](CC(N)=O)NC(=O)[C@H](CCC(=O)O)NC(=O)[C@@H](Cc1ccc(O)cc1)NC(=O)CN(CCN(CCN(CC(=O)O)CC(=O)O)CC(=O)O)CC(=O)O)C1CCN(C(=N)N)CC1)C(C)(C)C)C(=O)O :: -0.40
CC[C@H](C)[C@H](NC(=O)[C@H](Cc1ccc(O)cc1)NC(=O)[C@@H]1CCCN1C(=O)[C@H](Cc1ccc(N=C(N)N)cc1)NC(=O)[C@H](CCCNC(=N)N)NC(=O)[C@@H]1CCCN1C(=O)[C@@H](CCCCN)NC(=O)CN(CCN(CCN(CC(=O)O)CC(=O)O)CC(=O)O)CC(=O)O)C(=O)N[C@@H](CC(C)C)C(=O)O :: -0.40
CC(C)C[C@H](NC(=O)[C@@H](NC(=O)[C@H](Cc1ccc(O)cc1)NC(=O)[C@@H]1CCCN1C(=O)[C@H](CCCN=C(N)N)NC(=O)[C@H](Cc1ccc(NC(=N)N)cc1)NC(=O)[C@@H]1CCCN1C(=O)[C@@H](CCCCN)NC(=O)CN(CCN(CCN(CC(=O)O)CC(=O)O)CC(=O)O)CC(=O)O)C(C)(C)C)C(=O)O ({DTPA}-[dK]P[Phe(4-guanidino)]RPY[Tle]L-OH) :: 1.39
CC(C)C[C@H](NC(=O)[C@@H](NC(=O)[C@H](Cc1ccc(O)cc1)NC(=O)[C@@H]1CCCN1C(=O)[C@H](CCCN=C(N)N)NC(=O)[C@@H](NC(=O)[C@@H]1CCCN1C(=O)[C@@H](NC(=O)CN(CCN(CCN(CC(=O)O)CC(=O)O)CC(=O)O)CC(=O)O)C1CCNCC1)C1CCN(C(=N)N)CC1)C(C)(C)C)C(=O)O ({DTPA}-[Gly(piperidin-4-yl)]P[Gly(1-amidinopiperidin-4-yl)]RPY[Tle]L-OH) :: -0.52
CC[C@H](C)[C@H](NC(=O)[C@H](Cc1ccc(O)cc1)NC(=O)[C@@H]1CCCN1C(=O)[C@H](CCCN=C(N)N)NC(=O)[C@H](Cc1ccc(NC(=N)N)cc1)NC(=O)[C@@H]1CCCN1C(=O)[C@@H](CCCCN)NC(=O)CN(CCN(CCN(CC(=O)O)CC(=O)O)CC(=O)O)CC(=O)O)C(=O)N[C@@H](CC(C)C)C(=O)O :: -0.30

Please find the next compound below.
log10(IC50) reported for this compound `CC(C)C[C@H](NC(=O)[C@@H](NC(=O)[C@H](Cc1ccc(O)cc1)NC(=O)[C@@H]1CCCN1C(=O)[C@H](CCCNC(=N)N)NC(=O)[C@@H](NC(=O)[C@H](CCCN=C(N)N)NC(=O)[C@@H]1CCN1C(=O)[C@@H](CCCCN)NC(=O)CN(CCN(CCN(CC(=O)O)CC(=O)O)CC(=O)O)CC(=O)O)C1CCN(C(=N)N)CC1)C(C)(C)C)C(=O)O` : 1.06

###

- Target of assay: Neurotensin receptor type 1 (Homo sapiens, UniProt P30989)
- Experimental details: Binding affinity towards neurotensin receptor in membranes prepared from HT-29 cell line, relative to [111In]-labeled neurotensin peptide
*1 amine or outer side, *2 acyl side, *3 side chain or, on linkers, in order; H or OH if unused. Where a SMILES comes first, the peptide text is derived from it. [ ]: non-standard residue; d: D form. The star is where a group is joined. Gly(1-amidinopiperidin-4-yl) = N=C(N)N1CCC([C@H](N)C(=O)O)CC1; DTPA = O=C(O)CN(CCN(CC(=O)O)CC(=O)O)CCN(CC(=O)O)CC(=O)*; Phe(4-guanidino) = N=C(N)Nc1ccc(C[C@H](N)C(=O)O)cc1; X1 = NCC1CCC(C[C@H](N[*:1])C(=O)[*:2])CC1; Tle = CC(C)(C)[C@H](N)C(=O)O
Assay endpoint: pIC50
The read-out pIC50 is expressed as -log10 of concentration in moles per litre.

Answered examples (2):
CC(C)C[C@H](NC(=O)[C@@H](NC(=O)[C@H](Cc1ccc(O)cc1)NC(=O)[C@@H]1CCCN1C(=O)[C@H](CCCN=C(N)N)NC(=O)[C@@H](NC(=O)[C@@H]1CCCN1C(=O)[C@H](CC1CCC(CN)CC1)NC(=O)CN(CCN(CCN(CC(=O)O)CC(=O)O)CC(=O)O)CC(=O)O)C1CCN(C(=N)N)CC1)C(C)(C)C)C(=O)O (stereo partly drawn) ({DTPA}-[X1]P[Gly(1-amidinopiperidin-4-yl)]RPY[Tle]L-OH) :: 9.52
CC[C@H](C)[C@H](NC(=O)[C@H](Cc1ccc(O)cc1)NC(=O)[C@@H]1CCCN1C(=O)[C@H](Cc1ccc(NC(=N)N)cc1)NC(=O)[C@H](Cc1ccc(NC(=N)N)cc1)NC(=O)[C@@H]1CCCN1C(=O)[C@@H](CCCCN)NC(=O)CN(CCN(CCN(CC(=O)O)CC(=O)O)CC(=O)O)CC(=O)O)C(=O)N[C@@H](CC(C)C)C(=O)O ({DTPA}-[dK]P[Phe(4-guanidino)][Phe(4-guanidino)]PYIL-OH) :: 7.66

Let's switch to this molecule now.
Entry `CC(C)(C)[C@H](NC(=O)[C@H](Cc1ccc(O)cc1)NC(=O)[C@@H]1CCCN1C(=O)[C@H](CCCNC(=N)N)NC(=O)[C@@H](NC(=O)[C@@H]1CCCN1C(=O)[C@@H](CCCCN)NC(=O)CN(CCN(CCN(CC(=O)O)CC(=O)O)CC(=O)O)CC(=O)O)C1CCN(C(=N)N)CC1)C(=O)N[C@@H](CC1CCCC1)C(=O)O` , pIC50 reported as 7.37
